test: kinetic aqueous solubility (Method A); type: physicochemical; conditions: water, pH 7, kinetic, pH 7; read-out: solubility at pH 7
propertyName: solubility at 15 min

>>> df
                                   compound           val
0  O=[N+]([O-])c1cn2c(n1)OC(COCc1ccc(-c3ccc(OC(F)(F)F)cc3)cc1)CC2 (stereo not shown)  ~0.058 µg/mL

----------
system: Leishmania infantum; experiment: L. inf growth inhibition in mouse macrophages (LMPH); type: cell-based; conditions: Macrophage, mean of at least two determinations
Assign classes using reported IC50 values and the ranges lower segment: < 300 nM; middle segment: ≥ 300 nM and < 4000 nM; upper segment: ≥ 4000 nM, please.

In [3]: df
Out[3]:
                                    compound         targetsystem           label
 0  O=C(c1ccc(F)cc1)N1CCN(CC2CCn3cc([N+](=O)[O-])nc3O2)CC1 (centres unmarked)  Leishmania infantum   upper segment
 1  CC1(CN2CCN(C(=O)c3ccc(F)cc3)CC2)CCn2cc([N+](=O)[O-])nc2O1 (centres unmarked)  Leishmania infantum   upper segment
 2  CC1(CN2CCN(c3ccc(F)cc3)CC2)CCn2cc([N+](=O)[O-])nc2O1 (centres unmarked)  Leishmania infantum  middle segment
 3  O=[N+]([O-])c1cn2c(n1)OC(COCc1ccc(-c3ccc(F)cc3)cc1)CC2 (centres unmarked)  Leishmania infantum   lower segment
 4  CC1(COc2ncc(-c3ccc(F)cc3)cn2)CCn2cc([N+](=O)[O-])nc2O1 (centres unmarked)  Leishmania infantum   lower segment
 5  O=[N+]([O-])c1cn2c(n1)OC(COc1ccc(-c3ccc(OC(F)(F)F)cc3)cn1)CC2 (centres unmarked)  Leishmania infantum  middle segment
 6  O=[N+]([O-])c1cn2c(n1)OC(COCc1ccc(-c3ccc(OC(F)(F)F)cc3)cc1)CC2 (centres unmarked)  Leishmania infantum  middle segment
 7  O=[N+]([O-])c1cn2c(n1)OC(COc1ccc(-c3ccc(F)nc3)cc1)CC2 (centres unmarked)  Leishmania infantum   lower segment
 8  O=[N+]([O-])c1cn2c(n1)OC(COc1cnc(-c3ccc(F)cc3)cn1)CC2 (centres unmarked)  Leishmania infantum  middle segment
 9  CC1(COc2cccc(-c3ccc(F)cc3F)n2)CCn2cc([N+](=O)[O-])nc2O1 (centres unmarked)  Leishmania infantum   lower segment
10  O=[N+]([O-])c1cn2c(n1)OC(COc1ncc(-c3ccc(F)cc3)cn1)CC2 (centres unmarked)  Leishmania infantum   lower segment
11  O=[N+]([O-])c1cn2c(n1)OC(COc1ccc(-c3ccc(F)nc3F)nc1)CC2 (centres unmarked)  Leishmania infantum   upper segment
12  CC1(COc2ncc(-c3ccc(F)nc3)cn2)CCn2cc([N+](=O)[O-])nc2O1 (centres unmarked)  Leishmania infantum   upper segment
13  O=[N+]([O-])c1cn2c(n1)OC(COc1cccc(-c3ccc(F)nc3)n1)CC2 (centres unmarked)  Leishmania infantum   upper segment
14  CC1(COc2ccc(-c3ccc(F)cn3)cn2)CCn2cc([N+](=O)[O-])nc2O1 (centres unmarked)  Leishmania infantum  middle segment
15  CC1(CN2CCC(Oc3ccc(F)cc3)CC2)CCn2cc([N+](=O)[O-])nc2O1 (centres unmarked)  Leishmania infantum  middle segment
16  O=[N+]([O-])c1cn2c(n1)OC(COc1cccc(-c3ccc(F)nc3F)n1)CC2 (centres unmarked)  Leishmania infantum   upper segment
17  CC1(COc2ccc(-c3ccc(F)nc3)cc2)CCn2cc([N+](=O)[O-])nc2O1 (centres unmarked)  Leishmania infantum   lower segment
18  O=[N+]([O-])c1cn2c(n1)OC(COc1ccc(-c3ccc(F)cn3)cn1)CC2 (centres unmarked)  Leishmania infantum   upper segment
19  CC1(COc2cccc(-c3ccc(F)nc3)n2)CCn2cc([N+](=O)[O-])nc2O1 (centres unmarked)  Leishmania infantum  middle segment
20  O=C(OCC1CCn2cc([N+](=O)[O-])nc2O1)N1CCN(c2ccc(F)cc2)CC1 (centres unmarked)  Leishmania infantum   upper segment
21  CC1(COC(=O)N2CCN(c3ccc(F)cc3)CC2)CCn2cc([N+](=O)[O-])nc2O1 (centres unmarked)  Leishmania infantum  middle segment
22  O=[N+]([O-])c1cn2c(n1)OC(COc1ccc(-c3ccc(F)cc3)nn1)CC2 (centres unmarked)  Leishmania infantum   upper segment
23  O=[N+]([O-])c1cn2c(n1)OC(COc1ncc(-c3ccc(F)nc3)cn1)CC2 (centres unmarked)  Leishmania infantum   upper segment
24  O=[N+]([O-])c1cn2c(n1)OC(COc1ccc(-c3ccc(F)cc3F)cn1)CC2 (centres unmarked)  Leishmania infantum   lower segment
25  CC1(COc2cccc(-c3ccc(F)nc3F)n2)CCn2cc([N+](=O)[O-])nc2O1 (centres unmarked)  Leishmania infantum  middle segment
26  CC1(COCc2ccc(-c3ccc(F)cc3)cc2)CCn2cc([N+](=O)[O-])nc2O1 (centres unmarked)  Leishmania infantum  middle segment
27  CC1(COc2ccc(-c3ccc(F)cc3F)nc2)CCn2cc([N+](=O)[O-])nc2O1 (centres unmarked)  Leishmania infantum   lower segment
28  O=[N+]([O-])c1cn2c(n1)OC(CN1CCC(c3ccc(F)cc3)CC1)CC2 (centres unmarked)  Leishmania infantum  middle segment
29  CC1(COc2ccc(-c3ccc(F)nc3F)nc2)CCn2cc([N+](=O)[O-])nc2O1 (centres unmarked)  Leishmania infantum   lower segment
